Each entry below carries its recorded log10(koff).
molecular target: T1, human BCMA-hFc kih monovalent recombinant protein (human, UniProt P0DOX5 223-449 = IgG part); assay: SPR (Biacore T200), BCMA-hFc captured on Protein A chip, Fab as analyte, 1:1 Langmuir
T1 construct: Knob-into-hole heterodimer with one BCMA arm, expressed in HEK293E; also called human BCMA-hFc recombinant protein
ENDPOINT_LABEL: log10(koff) (log10 of the value in s⁻¹)

BINDER	log10(koff)
15H10 Fab (Fab, V domains shown, Murine BCMA Fab, Ni-NTA purified) VH: EVQLQQSGPELKKPGETVKISCKASGYTFTNFGMNWVRQTPGKALKWMGWINTYTGDLIYGDDFKGRFAFSLETSASTAYLQINNLKNEDTATYFCARGEIYYGYDVGFAYWGQGTLVTVSA VL: DIVLTQSPASLAVSLGQRATISCRASKSVSTSGYSYMHWYQQKPGQPPKLLIYLASNLESGVPARFSGSGSGTDFTLNIHPVEEEDAATYYCQHSRELPWTFGGGTKLEIK	-3.16
6G5 Fab (Fab, V domains shown, Murine BCMA Fab, Ni-NTA purified) VH: EIQLVQSGPELKKPGETVKISCKASGYIFTNFGMNWVRQAPGKALKWMGWINTYTGEQIYADDFKGRFAFSLETSASTAYLQINNLKNEDTATYFCARGEIYYGYDVGFVYWGQGTLVTVSA VL: DIVLTQSPASLAISLGQRATISCRASKSVTTSGYSYIHWYQQKPGQPPKLLIYLASDLEAGVPARFSGSGSGTDFTLNIHPVEEEDAATYYCQHSRELPWTFGGGTKLELK	-4.21
15G9 Fab (Fab, V domains shown, Murine BCMA Fab, Ni-NTA purified) VH: QVQLQQSGPELVKPGASVNLSCKASGYTFTNYVIHWVKQKPGQGLEWIGYTIPYTDVTKYNEKFKAKATLTSDKSSSTAFMELSSLTSEDSAVYYCARYDFDGYFDYWGQGTTLTVSS VL: DIVMTQAAFSNPVTLGTSASISCRSSKSLLHSNGITYLYWYLQKPGQSPQLLIYQMSNLASGVPDRFSSSGSGTDFTLRISRVEAEDVGVYYCAQNLELPWTFGGGTKLELK	-1.90
23F8 Fab (Fab, V domains shown, Murine BCMA Fab, Ni-NTA purified) VH: EIQLVQSGPELKKPGETVKISCTASGYTFTNFGMNWVRQAPGKALRWMGWINTYTGDQIYADDFKGRFAFSLETSASTAYLQINNLKNEDTATYFCARGEIYYGYDVGFVYWGQGTLVTVSA VL: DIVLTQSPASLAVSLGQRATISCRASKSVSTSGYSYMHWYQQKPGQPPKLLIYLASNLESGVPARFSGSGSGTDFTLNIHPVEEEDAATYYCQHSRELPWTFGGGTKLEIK	-3.49
23G9 Fab (Fab, V domains shown, Murine BCMA Fab, Ni-NTA purified) VH: EVQLQQSGTVLTRPGASVKLSCKASGYSFSSYWMHWLKQRPGQGLEWIGAIYPGNSRTTYNQKFKGEAKLTADTSASTAYMDLSSLTNADSAVYFCTREETYWGQGTLVTVSA VL: DVVMTQTPLSLSVTIGQPASISCKSSQGLLDSYGVTYLNWLFQRPGQPPKRLIYLVSELDSGVPDRFTGSGSGTDFTLRISRVEAEDLGIYYCWQGSHFPLTFGAGTKLELK	-3.50
